targetEntity: Protease (Human immunodeficiency virus 1)
Sequence (Q9YQ12 whole entry): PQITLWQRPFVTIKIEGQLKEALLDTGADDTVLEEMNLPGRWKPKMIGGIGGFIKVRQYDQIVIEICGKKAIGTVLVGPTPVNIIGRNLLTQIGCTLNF
measurementName: Ki (nM)

Please review the following examples before continuing.
compound | targetEntity | Ki, nM
Nc1cccc(CN2C(=O)N(Cc3ccc4cn[nH]c4c3)C(Cc3ccccc3)C(O)C2CCc2ccccc2)c1 (stereo not drawn) | Protease (Human immunodeficiency virus 1) | 0.0794
N/C(=N/O)c1cc(CN2C(=O)N(Cc3ccc(F)c(/C(N)=N\O)c3)C(Cc3ccc(F)c(F)c3)C(O)C2CCc2ccccc2)ccc1F (stereo not drawn) | Protease (Human immunodeficiency virus 1) | 0.0603
CN1C=CSC1C(=O)Nc1cccc(CN2C(=O)N(Cc3cccc(NC(=O)C4SC=CN4C)c3)C(Cc3ccccc3)C(O)C2CCc2ccccc2)c1 (stereo not drawn) | Protease (Human immunodeficiency virus 1) | 0.0302
Nc1cccc(CN2C(=O)N(Cc3ccc4c(N)n[nH]c4c3)C(CCc3ccccc3)C(O)C2Cc2ccccc2)c1 (stereo not drawn) | Protease (Human immunodeficiency virus 1) | 0.1

(1) NC(=O)c1cccc(CN2C(=O)N(Cc3cccc(C(N)=O)c3)C(Cc3ccccc3)C(O)C2CCc2ccccc2)c1 (stereo not drawn)
(2) Nc1cccc(CN2C(=O)N(Cc3cccc(N)c3)C(Cc3ccccc3)C(O)C2CCc2ccccc2)c1 (stereo not drawn)
(3) NC(=O)c1cccc(CN2C(=O)NC(CCc3ccccc3)C(O)C2Cc2ccccc2)c1 (stereo not drawn)
(4) Nc1n[nH]c2cc(CN3C(=O)N(Cc4ccccc4)C(Cc4ccccc4)C(O)C3CCc3ccccc3)ccc12 (stereo not drawn)
Put the items in sequence by Ki, from largest down. Returns: the labels arranged in the requested order.
3, 2, 4, 1
(3: 5.62 nM, 2: 1.7 nM, 4: 0.646 nM, 1: 0.0891 nM)

---

// endpoint Ki / system UniProt Q9YQ12
measurementName: Ki (nM)

The cases that follow already have their Ki on record.
compound | targetEntity | obsValue
N/C(=N/O)c1cccc(CN2C(=O)N(Cc3cccc(/C(N)=N\O)c3)C(Cc3ccc(F)cc3)C(O)C2CCc2ccc(F)cc2)c1 (stereo not given) | UniProt Q9YQ12 | 0.02
O=C1N(Cc2ccccc2)C(Cc2ccccc2)C(O)C(C(Br)Cc2ccccc2)N1Cc1ccccc1 (stereo not given) | UniProt Q9YQ12 | 186
N#Cc1cccc(CN2C(=O)NC(CCc3ccccc3)C(O)C2Cc2ccccc2)c1 (stereo not given) | UniProt Q9YQ12 | 15.1

(1) O=C1N(Cc2cccc(O)c2)C(Cc2ccccc2)C(O)C(C(F)Cc2ccccc2)N1Cc1cccc(O)c1 (stereo not given)
(2) NC(=O)c1cccc(CN2C(=O)N(Cc3cccc(N)c3)C(Cc3ccccc3)C(O)C2CCc2ccccc2)c1 (stereo not given)
(3) Nc1cc(CN2C(=O)N(Cc3ccc(F)c(N)c3)C(Cc3ccccc3)C(O)C2CCc2ccccc2)ccc1F (stereo not given)
(4) CNc1cccc(CN2C(=O)N(Cc3cccc(NC)c3)C(Cc3ccccc3)C(O)C2CCc2ccccc2)c1 (stereo not given)
(5) O=C1NC(CCc2ccccc2)C(O)C(Cc2ccccc2)N1Cc1ccc2[nH]ncc2c1 (stereo not given)
Sort these compounds on Ki so the largest reading comes first. Write out the labels following the order that was asked for.
4, 1, 5, 3, 2
(4: 22.9 nM, 1: 12 nM, 5: 1.2 nM, 3: 0.251 nM, 2: 0.0603 nM)

(a) NC(=O)c1cc(CN2C(=O)NC(CCc3ccccc3)C(O)C2Cc2ccccc2)ccc1F (stereo not given)
(b) Cc1ccc(C(=O)Nc2cccc(CN3C(=O)N(Cc4cccc(NC(=O)c5ccc(C)cn5)c4)C(Cc4ccccc4)C(O)C3CCc3ccccc3)c2)nc1 (stereo not given)
Which value of Ki is smaller, the one for a or the one for b ? Choose, then provide that item's label.
b
(b: 0.0794 nM, a: 14.1 nM)
